System: Aspergillus niger
EXPERIMENT: Antimicrobial activity against Aspergillus niger IFM62678 assessed as reduction in […] growth incubated for 48 hrs by microbroth dilution method
Assay type: functional
CONDITION: IFM62678, 48 h
MEASUREMENT KIND: IC50

[[record]]
mol = "NC[C@H]1O[C@H](O[C@H]2[C@H](O)[C@@H](O[C@H]3O[C@H](CO)[C@@H](O)[C@H](N)[C@H]3O)[C@H](N)C[C@@H]2N)[C@H](O)[C@@H](O)[C@@H]1O"
measurement_kind = "IC50"
data_value = "31.3 µg/mL"

